- measured_on: Trypsin (type 1× from porcine pancreas) (Sus scrofa)
- Construct: Trypsin (5 ug/ml; type 1× from porcine pancreas); purchased Sigma, St. Louis Mo; host or cells: porcine pancreas
- Sequence (P00761 9-231): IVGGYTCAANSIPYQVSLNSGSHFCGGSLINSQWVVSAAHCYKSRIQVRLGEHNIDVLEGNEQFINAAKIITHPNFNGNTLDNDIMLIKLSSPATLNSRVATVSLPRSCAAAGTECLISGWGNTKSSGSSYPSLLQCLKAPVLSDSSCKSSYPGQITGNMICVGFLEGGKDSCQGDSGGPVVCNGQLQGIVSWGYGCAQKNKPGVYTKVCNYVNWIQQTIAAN
- assay_overview: Trypsin Assay
- Format: biochemical
- condition_context: inhibitor at 100 νM
measured_endpoint: % Inhibition Trpysin II (100 νM) (%)

In the examples that follow, each entry is paired with its recorded % Inhibition Trpysin II (100 νM).
molecule=O=C(Cn1c(Cc2ccccc2)c(Cl)nc(NCCc2cccc(Cl)c2)c1=O)NCCc1ccncc1 measured_on="Trypsin (type 1× from porcine pancreas) (Sus scrofa)" measured_endpoint="% Inhibition Trpysin II (100 νM)" unit_annotation=% reported_value=0
molecule="O=C(Cn1c(-c2cccc(Cl)c2)c(Cl)nc(NCCc2ccccc2)c1=O)NCCc1cccnc1 [Example E-0089]" measured_on="Trypsin (type 1× from porcine pancreas) (Sus scrofa)" measured_endpoint="% Inhibition Trpysin II (100 νM)" unit_annotation=% reported_value=8
molecule=O=C(Cn1c(-c2ccc3c(c2)OCO3)c(Cl)nc(NCc2ccccc2)c1=O)NCCc1ccncc1 measured_on="Trypsin (type 1× from porcine pancreas) (Sus scrofa)" measured_endpoint="% Inhibition Trpysin II (100 νM)" unit_annotation=% reported_value=2
molecule="O=C(Cn1c(-c2cccc(Cl)c2)c(Cl)nc(NCCc2cccc(Cl)c2)c1=O)NCCc1ccncc1 [Example E-0079]" measured_on="Trypsin (type 1× from porcine pancreas) (Sus scrofa)" measured_endpoint="% Inhibition Trpysin II (100 νM)" unit_annotation=% reported_value=11

[I] O=C(Cn1c(-c2ccc(Cl)cc2)c(Cl)nc(NCCc2ccncc2)c1=O)NCCc1ccncc1 [Example E-0022]
[II] COc1ccc(-c2c(Cl)nc(NCc3ccccc3)c(=O)n2CC(=O)NCCc2ccncc2)cc1 [Example E-0097]
[III] Cc1c(Cl)nc(NCCc2cccc(Cl)c2)c(=O)n1CC(=O)NCCc1ccncc1
[IV] O=C(Cn1c(-c2cccc(Cl)c2)c(Cl)nc(NCCc2ccc(Cl)cc2)c1=O)NCCc1ccncc1 [Example E-0082]
input: Number of molecules to sort: 4. Sort criterion: % Inhibition Trpysin II (100 νM), ascending. Provide the ranking by listing each label in its place in the requested order.
output: III, I, IV, II
(III: 0%, I: 2%, IV: 3%, II: 11%)
